A collection of binders and their measured Kd
- system_tested: T1, recombinant gp120 of HIV-1 strain IIIb (HIV-1 strain IIIb, UniProt P04578 33-511)
- T1 construct: domain: gp120; also called IIIb-derived gp120; gp 120 (IIIB strain)
- run_description: SPR BIAcore, gp120 on chip;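 further: fab fragments flowed at 0.5 to 10 ug/ml over immobilized gp120, resonance units tracked during association and dissociation, equilibrium constants derived from the rate constants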
reported_metric: Kd

>  <binder>
composite Fab H103/L42-4 (Fab, V domains shown) VH: LEQSGAEVKKPGASVKVSCQASGYRFSHFTLHWVRQAPGQRFEWHGWINPYNGNKEFSAKFQDRVTFTADTSANTAYMELRSLRSADTAVYYCARVGEWGWHQRRYDNYYMDVWGKGTTVIVSS VL: ELTQSPGTLSLSPGERATFSCRSSHQLDGSRVAWYQHKPGQAPRLVIHGVSNRASGISDRFSGSGSGTDFTLTITRVEPEDFALYYCQQYGWPFYTFGQGTKLERKR

>  <observed_measurement>
0.113 nM

$$$$
>  <binder>
composite Fab H31/L42-1 (Fab, V domains shown, also called Fab of plasmid pPho-H31/L42-1 (ATCC 69691)) VH: LEQSGAEVKKPGASVKVSCQASGYRFSHFTVHWVRQAPGQRFEWHGWINPYNGNKEFSAKFQDRVTFTADTSANTAYMELRSLRSADTAVYYCARVGEWGWEMFRYDNYYMDVWGKGTTVIVSS VL: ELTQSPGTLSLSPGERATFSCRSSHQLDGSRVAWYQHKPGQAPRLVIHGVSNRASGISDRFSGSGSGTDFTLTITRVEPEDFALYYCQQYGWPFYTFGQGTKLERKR

>  <observed_measurement>
0.00259 nM

$$$$
>  <binder>
composite Fab H101/L42-16 (Fab, V domains shown) VH: LEQSGAEVKKPGASVKVSCQASGYRFSHFTVHWVRQAPGQRFEWHGWINPYNGNKEFSAKFQDRVTFTADTSANTAYMELRSLRSADTAVYYCARVGEWGWHQRRYDNYYMDVWGKGTTVIVSS VL: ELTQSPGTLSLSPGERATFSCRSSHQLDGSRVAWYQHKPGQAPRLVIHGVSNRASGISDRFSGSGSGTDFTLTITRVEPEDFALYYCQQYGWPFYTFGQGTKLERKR

>  <observed_measurement>
0.172 nM

$$$$
